Each recorded value in this set is attributed to paper PMC5686127.

target: CHD4 linker-PHD2 (aa 414–503) (human, UniProt Q14839 414-503); test: 150 mM NaCl
Sequence (Q14839 414-503): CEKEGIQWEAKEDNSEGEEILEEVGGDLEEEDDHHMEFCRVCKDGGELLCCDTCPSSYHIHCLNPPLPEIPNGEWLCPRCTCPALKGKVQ
assay.readout: pKd
Remember the convention: pKd equals -log10 of concentration in molar.

Q. Look at this binder and give its reported pKd. ARTKQTARKSTG [histone H3 peptide (aa 1–12)]
A. 6.57
